# System: UACC-257 melanoma
# Assay name: NCI tumour cell line growth inhibition, 48 h
Value type: GI50

{"Compound": "COc1cc(-c2cc(-c3cc(OC)c(OC)c(OC)c3)nc3nc(N)[nH]c(=O)c23)ccc1Oc1ccnc2cc(Cl)ccc12", "System name": "UACC-257 melanoma", "Result": "7.08 µM"}
{"Compound": "COC1=CC(c2ccc[nH]2)=N/C1=C\\c1[nH]c(C)c(C(=O)CCCCC(=O)Oc2ccc3c(c2)CCC2C3CC[C@]3(C)[C@@H](O)CC[C@@H]23)c1C (stereo not given in full)", "System name": "UACC-257 melanoma", "Result": "> 100 µM"}
{"Compound": "Cc1c(O)c2c(c(O)c1Br)C(=O)C=CC2=O", "System name": "UACC-257 melanoma", "Result": "0.924 µM"}
{"Compound": "CN1CCN(Cc2ccc(NC(=O)c3cccc(C#Cc4cnc(N)c5ncccc45)c3F)cc2C(F)(F)F)CC1", "System name": "UACC-257 melanoma", "Result": "0.828 µM"}
{"Compound": "Clc1ccc(OCc2nnc3n2N=C(c2ccc(Cl)cc2Cl)CS3)cc1", "System name": "UACC-257 melanoma", "Result": "25 µM"}

Give GI50 for each listed item.
1. O=S(=O)(/N=c1/scc(-c2ccccc2)n1-c1ccccc1)c1ccc(N2N=C3c4ccccc4CC3C2c2cccs2)cc1 (stereo not given)
2. O=C1c2cccc(NCCN=Cc3ccccc3O)c2C(=O)c2c(NCCN=Cc3ccccc3O)cccc21
3. CC(=O)OC1CC2C3CCC4C[C@@H](NC(=O)C=C(C)C)CC[C@]4(C)C3CC[C@]2(C)[C@H]1C(C)N(C)C (stereo not given in full)
4. COc1ccc(/C=C2\C=C(c3ccccc3)N(CCc3ccccc3)C2=O)cc1OC

1: > 100 µM; 2: 1.44 µM; 3: 2.18 µM; 4: 20.2 µM

---

# System: UACC-62 melanoma
# Assay name: NCI tumour cell line growth inhibition, 48 h
Task for the reader: assign each of the following molecules its reported TGI.

Record excerpt, results attached:
{"Molecule": "O=C(Nc1ccccc1)c1cc(S(=O)(=O)Nc2nc3ccccc3o2)c(SCc2ccccc2)cc1Cl", "TGI": "31.6 µM"}
{"Molecule": "COc1cc2c(cc1OC)C(=O)/C(=C/c1cc(OC)c(OC)c(OC)c1)C2", "TGI": "> 100 µM"}
{"Molecule": "CC(=O)NC(Cc1ccsc1)C(=O)O (stereo not given)", "TGI": "> 100 µM"}
{"Molecule": "C1CC[C@H]2SSC3CCCC[C@H]3SSC2C1 (stereo not given in full)", "TGI": "> 100 µM"}
{"Molecule": "COc1cc(-c2cc(-c3cc(OC)c(OC)c(OC)c3)nc3nc(N)[nH]c(=O)c23)ccc1Oc1ccnc2cc(Cl)ccc12", "TGI": "25.2 µM"}
{"Molecule": "COc1cc(-c2c(C#N)c(N)nc(N3CCOCC3)c2C#N)cc(OC)c1OC", "TGI": "> 100 µM"}
{"Molecule": "O=C(CNC(c1ccccc1)(c1ccccc1)c1ccccc1)NC1CCCCC1NC(=O)CNC(c1ccccc1)(c1ccccc1)c1ccccc1 (stereo not given)", "TGI": "> 100 µM"}
{"Molecule": "OCc1ccc(N2CCc3ccccc3C2)cc1Cl", "TGI": "0.144 µM"}

Hey, quick one: what's TGI for each of these?
1. CC(=O)N1N=C2/C(=C/c3ccc(Cl)cc3)CC(C)CC2C1c1ccc(Cl)cc1 (stereo not given)
2. CCOC(=O)c1c2c(c(O)c3ccccc3c(O)n(Cc3ccccc3)c1C)C(=O)C=CC2=O

52.2 µM
> 100 µM

---

# Test system: A549 NSCLC
# Assay name: NCI tumour cell line growth inhibition, 48 h
Record form. Attribute: TGI. Fill in for each entry.

Past entries and their recorded results:
{"Compound": "O=C(O)CC(Sc1ccccc1)c1ccccc1 (stereo not given)", "Value type": "TGI", "Result": "> 100 µM"}
{"Compound": "CS(=O)(=O)CC(=O)c1ccccc1", "Value type": "TGI", "Result": "> 100 µM"}
{"Compound": "COc1cc([C@@H]2c3cc4c(cc3[C@@H](Nc3ccc(C(=O)N[C@H]5CCc6cc(OC)c(OC)c(OC)c6-c6ccc(SC)c(=O)cc65)cc3)[C@H]3COC(=O)[C@H]23)OCO4)cc(OC)c1O", "Value type": "TGI", "Result": "> 100 µM"}
{"Compound": "COP(=O)(OC)C(O)CC(C)C (stereo not given)", "Value type": "TGI", "Result": "> 100 µM"}

Provide reported TGI for each item, in the same order as listed.
1. CCCCCCCCn1ccc2cc(NC(=O)Cn3cc(CN4CCCCC4)nn3)ccc21
2. Cc1cc(N(CCCl)CCCl)ccc1C=Nc1ccc2ccccc2c1
3. CC(C)(C)C1=CC(=C2C(=O)C(=O)c3ccccc3C2=O)C=C(C(C)(C)C)C1=O
4. COc1cc2c(cc1Nc1nc(Nc3cccc(F)c3C(N)=O)c3cc[nH]c3n1)N(C(=O)CN1CCN(C(C)C)CC1)CC2
5. O=Cc1ccc(CCl)cc1
6. CN(C)c1ccc(/C=C/C2=[N+](C)c3ccccc3C2(C)C)cc1

1: 4.57 µM; 2: > 100 µM; 3: > 100 µM; 4: 7.19 µM; 5: > 100 µM; 6: 14.9 µM

---

# Tested on: SN12C renal
# Assay name: NCI tumour cell line growth inhibition, 48 h
Value type: TGI

Known results for molecules:
{"Molecule": "c1ccc2c(c1)NC1(N3CCCCC3)CCCCC21 (configuration not stated)", "TGI": "> 100 µM"}
{"Molecule": "COc1ccc(C2=NN(C(=O)c3cc(OC)c(OC)c(OC)c3)C(c3ccc(N(C)C)cc3)C2)cc1 (configuration not stated)", "TGI": "> 100 µM"}
{"Molecule": "Clc1cc(Cl)cc(N2N=C(c3cccc(Nc4ccncc4)c3)CC2c2ccc3c(c2)OCO3)c1 (configuration not stated)", "TGI": "3.13 µM"}
{"Molecule": "CC(=O)OC12c3ccccc3-c3ccccc3C1C1C(=O)OC(=O)C12 (configuration not stated)", "TGI": "> 10 µM"}

// each molecule listed below needs its TGI
1. C=C(C(=C)P(=S)(c1ccccc1)c1ccccc1)P(=S)(c1ccccc1)c1ccccc1
2. CC1(C)[C@@H](OC(=O)CCC(=O)O)CC[C@]2(C)[C@H]3C(=O)C=C4[C@@H]5C[C@@](C)(C(=O)O)CC[C@]5(C)CC[C@@]4(C)[C@]3(C)CC[C@@H]12
3. Clc1ccc(-c2cc(-c3ccccc3)nc(NCCNc3ccnc4cc(Cl)ccc34)n2)cc1
4. O=C(C/C(=N/O)c1cc(-c2ccccc2)no1)c1ccccc1

1. > 100 µM
2. 105 µM
3. 3.28 µM
4. > 100 µM

Go through the items and report each one's TGI.
1. Cc1ccc2c(c1)S(=O)(=O)c1ccc3ccccc3c1N2
2. CCOc1cc2oc(C)cc(=O)c2c(OC)c1C=Nc1ccc(Cn2c(C)nc3ccccc32)cc1
3. O=C(/C(=C\c1ccc(Cl)cc1)c1ccccc1)c1ccccc1
4. O=c1oc2ccc(Br)cc2c(=O)n1-c1ccc(I)cc1F
5. Cn1cc(C2=C(c3cn(C)c4ccccc34)C(=O)NC2=O)c2ccccc21
6. CC1OC(OC2C(OC3CCC4(C)C(CCC5(C)C4CC=C4C6CC(C)(C)CCC6(C(=O)O)CCC45C)C3(C)CO)OCC(O)C2O)C(O)C(O)C1O (configuration not stated)
7. O=C(OCc1ccccc1)N(CCCCN(CCCNCc1ccccc1)C(=O)OCc1ccccc1)CCCNCc1ccccc1
8. NC12CCC(CC1=O)C2 (configuration not stated)

1: > 100 µM; 2: > 100 µM; 3: > 100 µM; 4: 2.79 µM; 5: > 25 µM; 6: 42 µM; 7: 0.886 µM; 8: > 100 µM

Hello, I would appreciate it if you could give TGI for each entry below.
1. O=C(CNC(c1ccccc1)(c1ccccc1)c1ccccc1)NC1CCCCC1NC(=O)CNC(c1ccccc1)(c1ccccc1)c1ccccc1 (configuration not stated)
2. COc1ccc(/C=C/C(=O)c2ccc(OC)c(OC)c2)cc1O
3. CCOC1Oc2ccccc2-c2nc(SC)ncc21 (configuration not stated)
4. O=C(CCCl)NNC1=NCCCN1
5. COc1cc(C2C(Cl)C(=O)N2NC(=O)c2ccc(N)cc2)cc(Br)c1O (configuration not stated)
6. Cn1c(=O)sc2cc(C(=S)N3CCC(Cc4ccccc4)CC3)ccc21
7. CC1=CC(N2C(=O)C(C)=CC2O)NC1=O (configuration not stated)
8. COc1cc(C(=O)N/N=C/c2ccc(N(C)C)cc2)cc(OC)c1OC

1. > 100 µM
2. 15.6 µM
3. > 100 µM
4. > 100 µM
5. 33.4 µM
6. > 100 µM
7. > 100 µM
8. > 100 µM

Answer for every listed entry: what is its TGI? The entries follow.
1. COc1cc([C@@H]2c3cc4c(cc3[C@@H](Nc3ccc(C(=O)N[C@H]5CCc6cc(OC)c(OC)c(OC)c6-c6ccc(SC)c(=O)cc65)cc3)[C@H]3COC(=O)[C@H]23)OCO4)cc(OC)c1O
2. Cc1ccc(NC(=O)/C(Cl)=C(/Cl)C(=O)O)cc1
3. COC1(O)c2cccc(Cl)c2C(=O)N1C1(C(N)=O)CCCCC1 (configuration not stated)
4. O=C1OCC2=C1C(c1ccc(Cl)c(Cl)c1)c1cc3c(cc1N2CCO)CCC3 (configuration not stated)

16.4 µM
32.5 µM
> 100 µM
8.91 µM
